Attribution: patent US20260109761A1

tested_system: T1, huZIP12-ECD-GST (human, UniProt Q504Y0 24-202)
T1 construct: also called hZIP12-ECD-GST; human ZIP12-ECD-GST; not shown: glutathione S-transferase (GST) tag
T1 sequence (Q504Y0 24-202): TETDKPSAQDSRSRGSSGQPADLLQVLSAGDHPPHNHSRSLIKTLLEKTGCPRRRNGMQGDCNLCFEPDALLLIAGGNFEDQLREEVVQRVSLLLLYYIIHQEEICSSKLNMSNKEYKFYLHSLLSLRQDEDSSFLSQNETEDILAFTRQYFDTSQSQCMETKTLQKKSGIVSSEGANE
assay_details: SPR single cycle kinetics (Biacore): mAb captured on protein A, huZIP12-ECD-GST injected at 2.34-600 nM, extended dissociation
measured_parameter: kon (M⁻¹ s⁻¹)
Number only, in M⁻¹ s⁻¹; omit the unit.

Field: example entries. Status: answers known.
binder: H2_G66Q_L2 (antibody, V domains shown, Fc null human IgG1 / human kappa) VH: QVQLVESGGGVVQPGRSLRLSCAASGFTFSDYGMHWVRQAPGKGLEWVAYISSGGTTIYYADTVKQRFTISRDNSKNTLYLQMNSLRAEDTAVYYCARWTNLYAMDYWGQGTTVTVSS VL: DIVLTQSPDSLAVSLGERATINCRASKSVSTSGYSYMHWYQQKPGQPPKFLIYLASNKESGVPDRFSGSGSGTDFTLTISSLQAEDVAVYYCQHSREVPYTFGGGTKVEIKR
unit_info: M⁻¹ s⁻¹
kon: 30000

binder: H3_W99H_VL-par (antibody, V domains shown, Fc null human IgG1 / human kappa) VH: QVQLVESGGGVVQPGRSLRLSCAASGFTFSDYGMHWVRQAPGKGLEWVAYISSGGTTIYYADTVKGRFTISRDNSKNTLYLQMNSLRAEDTAVYYCARHTNLYAMDYWGQGTTVTVSS VL: DIVLTQSPDSLAVSLGERATINCRASKSVSTSGYSYMHWYQQKPGQPPKFLIYLASNLESGVPDRFSGSGSGTDFTLTISSLQAEDVAVYYCQHSREVPYTFGGGTKVEIKR
unit_info: M⁻¹ s⁻¹
kon: 102000

binder: H2_T57H_L1 (antibody, V domains shown, Fc null human IgG1 / human kappa) VH: QVQLVESGGGVVQPGRSLRLSCAASGFTFSDYGMHWVRQAPGKGLEWVAYISSGGTHIYYADTVKGRFTISRDNSKNTLYLQMNSLRAEDTAVYYCARWTNLYAMDYWGQGTTVTVSS VL: DIVLTQSPDSLAVSLGERATINCRASKSVSTQGYSYMHWYQQKPGQPPKFLIYLASNLESGVPDRFSGSGSGTDFTLTISSLQAEDVAVYYCQHSREVPYTFGGGTKVEIKR
unit_info: M⁻¹ s⁻¹
kon: 43100

# input for lookup
May I ask what kon has been recorded for H2_Y60K_L1 (antibody, V domains shown, Fc null human IgG1 / human kappa) VH: QVQLVESGGGVVQPGRSLRLSCAASGFTFSDYGMHWVRQAPGKGLEWVAYISSGGTTIYKADTVKGRFTISRDNSKNTLYLQMNSLRAEDTAVYYCARWTNLYAMDYWGQGTTVTVSS VL: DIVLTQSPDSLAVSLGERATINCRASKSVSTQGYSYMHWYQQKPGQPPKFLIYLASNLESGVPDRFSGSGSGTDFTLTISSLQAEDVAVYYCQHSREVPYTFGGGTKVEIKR ? 37200
